Test system: CP256
Assay: qHTS profiling for inhibitors of Plasmodium falciparum proliferation (AID 504749); note: nearly all actives have a fitted effect of over 60% in size; note: potency is the fitted concentration of half-maximal effect
Settings: P. falciparum in erythrocytes, SYBR Green DNA, 72 h; series mostly up to 28.7 µM
Results filed as inconclusive are left out. Activity calls are given as the source filed them. Calls come from the whole dose curve; as a rule, active = well fitted inhibition curve with a large enough effect; inconclusive = small, poorly fitted or top-dose-only effect; inactive = flat fitted curve, though single readings scatter.
ASSAY READOUT: Potency

| MOLECULE | ASSAY READOUT | RESULT |
| --- | --- | --- |
| S=C1NC=NC2N=CNC12 (centres undefined) | Potency | inactive |
| Cc1cc(CC(C)CC(C)(C)C)n(O)c(=O)c1 (centres undefined) | Potency | 1.26 µM (active) |
| C=C[C@]1(C)C[C@@H](OC(=O)CSCCN(CC)CC)[C@]2(C)C(C)CC[C@]3(CCC(=O)[C@H]32)[C@@H](C)[C@@H]1O (some centres undefined) | Potency | 8.91 µM (active) |
| CN(C)CCCCCCN(C)C | Potency | inactive |
| CC(C)CN(C[C@@H](O)[C@H](Cc1ccccc1)NC(=O)O[C@H]1CCOC1)S(=O)(=O)c1ccc(N)cc1 | Potency | inactive |
| CN1CC[C@H](CN2c3ccccc3Sc3ccccc32)C1 | Potency | 8.91 µM (active) |
| CO[C@@H]1[C@@H](OC2OC(C)C(OC3CC(C)(O)C(OC(=O)CC(C)C)C(C)O3)C(N(C)C)C2O)[C@@H](CC=O)C[C@@H](C)C(=O)/C=C\C2O[C@H]2C[C@@H](C)OC(=O)C[C@H]1OC(C)=O (some centres undefined) | Potency | 5.01 µM (active) |
| O=NCc1ccc([N+](=O)[O-])o1 | Potency | inactive |
| CC1(C)S[C@@H]2[C@H](NC(=O)COc3ccccc3)C(=O)N2[C@H]1C(=O)O | Potency | inactive |

* * *

Readings of max response for the listed compounds
Molecular target: Nuclear receptor subfamily 1 group I member 2 (Rattus norvegicus)
Experiment: qHTS assay for small molecule activators of the rat pregnane X receptor (rPXR) signaling pathway (AID 651751); note: 0% is about no effect
Conditions: rPXR reporter cells, luciferase (One-Glo), 24 h
Activity calls are given as the source filed them. The rule behind the calls is not given here.
ASSAY READOUT: max response

| COMPOUND | TARGET OF ASSAY | ASSAY READOUT | RESULT |
| --- | --- | --- | --- |
| NC1=NC(S)C2N=CN=C2N1 (centres undefined) | Nuclear receptor subfamily 1 group I member 2 (Rattus norvegicus) | max response | -3.62% (inactive) |
| C=C(C)C1CC=C(C)C(O)C1 (centres undefined) | Nuclear receptor subfamily 1 group I member 2 (Rattus norvegicus) | max response | 2.42% (inactive) |
| COc1c2ccoc2cc2oc(=O)ccc12 | Nuclear receptor subfamily 1 group I member 2 (Rattus norvegicus) | max response | 2.12% (inactive) |
| O=C(O[C@@H]1Cc2c(O)cc(O)cc2O[C@@H]1c1cc(O)c(O)c(O)c1)c1cc(O)c(O)c(O)c1 | Nuclear receptor subfamily 1 group I member 2 (Rattus norvegicus) | max response | -1.38% (inactive) |
| C/C=C\c1ccc(OC)cc1 | Nuclear receptor subfamily 1 group I member 2 (Rattus norvegicus) | max response | 5.64% (inactive) |
| C=CC(=C)CCC=C(C)C | Nuclear receptor subfamily 1 group I member 2 (Rattus norvegicus) | max response | 2.22% (inactive) |
| CCO | Nuclear receptor subfamily 1 group I member 2 (Rattus norvegicus) | max response | 0.289% (inactive) |
| O[C@@H]([C@H](O)[C@@H](O)CBr)[C@@H](O)CBr | Nuclear receptor subfamily 1 group I member 2 (Rattus norvegicus) | max response | 0.919% (inactive) |
| CC1(C)S[C@@H]2[C@H](NC(=O)COc3ccccc3)C(=O)N2[C@H]1C(=O)O | Nuclear receptor subfamily 1 group I member 2 (Rattus norvegicus) | max response | -0.437% (inactive) |
| CC1=C2[C@H](/C=C(\C)C(=O)O)CC[C@@H](C)[C@H]2CC1 | Nuclear receptor subfamily 1 group I member 2 (Rattus norvegicus) | max response | -3.01% (inactive) |
| O=C(Nc1ccccc1)c1ccccc1O | Nuclear receptor subfamily 1 group I member 2 (Rattus norvegicus) | max response | -1.47% (inactive) |
| C=CC(C)(CCC=C(C)C)OC(C)=O (centres undefined) | Nuclear receptor subfamily 1 group I member 2 (Rattus norvegicus) | max response | 1.82% (inactive) |
| C1OCOCO1 | Nuclear receptor subfamily 1 group I member 2 (Rattus norvegicus) | max response | -2.23% (inactive) |
| O=C(O)c1ccccc1 | Nuclear receptor subfamily 1 group I member 2 (Rattus norvegicus) | max response | -2.75% (inactive) |

* * *

Assay: AP1 Signaling Pathway (AID 357);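 note: ME-180 reporter cells stimulated with EGF at its EC50 level; % is set by controls: 0 for no effect and ±100 for the full control effect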
Details: ME-180 (cervical carcinoma) AP-1-bla reporter, EGF-induced, beta-lactamase ratio, 5 h; at 7.69 µM (top of the series) unless noted
Records with an inconclusive call do not appear. The source made the active and inactive calls. Calls follow the shape of the dose curve; as a rule, active = well fitted curve in either direction with a large enough effect (not every such curve was filed as active); inconclusive = small, poorly fitted or top-dose-only effect, or another doubt; inactive = flat fitted curve, though single readings scatter.
Outcome codes: 1 (yes) for active, 0 (no) for inactive

| COMPOUND | CLASSIFICATION |
| --- | --- |
| COc1ccccc1-c1nccc(N2CCN(C)CC2)n1 | 0 (no) |
| O=C(/C=N/O)NCCCN1CCOCC1 | 0 (no) |
| COc1ccc2[nH]cc(CCNc3ncnc4ccc(-c5ccccc5OC)cc34)c2c1 | 0 (no) |
| COc1ccccc1CNc1nc(-c2cccc(NS(C)(=O)=O)c2)nc2ccccc12 | 0 (no) |
| CN1CCN(c2ncc3nc(-c4ccccc4)c(=O)n(Cc4cccs4)c3n2)CC1 | 0 (no) |
| Clc1ccccc1NN(Cc1ccncc1)c1ccccc1Cl | 0 (no) |
| CC(=O)[C@@]1(O)Cc2c(O)c3c(c(O)c2[C@H](O[C@H]2C[C@H](N)[C@H](O)[C@H](C)O2)C1)C(=O)c1ccccc1C3=O | 1 (yes) |
| Cc1ccccc1-c1ccc2ncnc(N3CCOCC3)c2c1 | 0 (no) |
| CN(C)c1nc(-c2ccc3c(c2)OCO3)nc2ccccc12 | 0 (no) |
| Cc1ccccc1-c1nc(Nc2ccncc2)c2ccccc2n1 | 0 (no) |
| c1cncc(CNc2nc(-c3cccnc3)nc3ccccc23)c1 | 0 (no) |
| c1ccc(Nc2nc(-c3ccoc3)nc3ccccc23)cc1 | 0 (no) |
| COc1ccccc1CNc1ccnc(-c2cccc(NS(C)(=O)=O)c2)n1 | 0 (no) |
| O=c1c(-c2ccccc2)nc2cnc(Oc3ccccc3)nc2n1C[C@H]1CCCO1 | 0 (no) |
| COc1ccccc1-c1ccc2ncnc(N3CCNCC3)c2c1 | 0 (no) |
| Cc1cccc(CNc2ncncc2-c2ccccc2CN(C)C)c1 | 0 (no) |
| NS(=O)(=O)c1ccc(N=Nc2c[nH]c(=O)c(O)c2)cc1 | 0 (no) |
| COc1ccccc1CNc1cc(-c2ccccc2CN(C)C)ncn1 | 0 (no) |
| COCCn1c(=O)c(CCc2ccccc2)nc2cnc(Oc3ccccc3)nc21 | 0 (no) |
| O=c1cc(O)cc(/C=C\c2ccc(O)c(O)c2)o1 | 0 (no) |
| COc1ccc2[nH]cc(CCNc3ncncc3-c3ccccc3Cl)c2c1 | 0 (no) |
| CN(C)c1ncc2nc(CCc3ccccc3)c(=O)n(CCC#N)c2n1 | 0 (no) |
| Cc1nc2cnc(N3CCN(C)CC3)nc2n(CCc2ccccc2)c1=O | 0 (no) |
| COc1ccccc1-c1nc(N2CCN(C)CC2)c2ccccc2n1 | 0 (no) |
| COc1ncc2nc(-c3ccccc3)c(=O)n(Cc3cccs3)c2n1 | 0 (no) |
| CC(C)=CCC1=C(OCC(=O)O)C(=O)c2ccccc2C1=O | 0 (no) |
| COc1cccc(-c2nc(NCCN3CCOCC3)c3ccccc3n2)c1 | 0 (no) |
| COCCn1c(N)c(C(=O)NCC2CCCO2)c2nc3ccccc3nc21 (stereo not given) | 0 (no) |
| CCNc1ncc2nc(-c3ccccc3)c(=O)n(CCC#N)c2n1 | 0 (no) |
| CN(C)C(=O)c1ccc(-c2nc(Nc3ccccc3)c3ccccc3n2)cc1 | 0 (no) |
| COc1ccc(Oc2ncc3nc(-c4cccc(C#N)c4)c(=O)n(Cc4cccc(OC)c4)c3n2)cc1 | 0 (no) |
| Cn1c(=O)c(-c2ccc(Cl)cc2)nc2cncnc21 | 0 (no) |
| CCC(NC(=O)Nc1ncccc1C)(C(F)(F)F)C(F)(F)F | 0 (no) |
| CC(NC(=O)Nc1ccc(O)cc1)(C(F)(F)F)C(F)(F)F | 0 (no) |
| COc1ccc(Oc2ncc3nc(-c4cc(F)cc(F)c4)c(=O)n(C4CC4)c3n2)cc1 | 0 (no) |
| CCNc1ncc2ncc(=O)n(Cc3cccc(OC)c3)c2n1 | 0 (no) |
| COc1ccccc1-c1nc(Nc2ccncc2)c2ccccc2n1 | 0 (no) |
| COc1cccc(-c2ccc3ncnc(N4CCNCC4)c3c2)c1 | 0 (no) |
| COc1ccccc1CNc1nc(-c2ccoc2)nc2ccccc12 | 0 (no) |
| c1ccc2c(NCCN3CCOCC3)nc(-c3ccc4c(c3)OCO4)nc2c1 | 0 (no) |
